- Protocol Description: Plasma concentration in CD-1 mouse at 2 mg/kg, po administered as single dose measured after 24 hrs
- Type: ADME, organism-based
Property Name: concentration at 24 h (ng/mL)
# output: bare number, implied unit ng/mL

What does the record list as concentration at 24 h for COc1ccc2c(O[C@H]3CCN4C(=O)N(C)CCCCC=C[C@@H]5C[C@@]5(C(=O)NS(=O)(=O)C5(C)CC5)NC(=O)[C@@H]4C3)cc(-c3nc(C(F)(F)F)cs3)nc2c1C ?
1.5

---

- Protocol Description: Cmax in Sprague-Dawley rat plasma at 2 mg/kg, iv administered as single dose measured after 8 hrs
- Assay type: ADME, organism-based
- Design: dose 2 mg/kg, route intravenous
Property Name: Cmax (ng/mL)
# output: bare number, implied unit ng/mL

                      smiles_representation   unit  measured_result
0  COc1ccc2c(O[C@H]3CCN4C(=O)N(C)CCCCC=C[C@@H]5C[C@@]5(C(=O)NS(=O)(=O)C5(C)CC5)NC(=O)[C@@H]4C3)cc(-c3nc(C(F)(F)F)cs3)nc2c1C  ng/mL             2060

Now look at this entry.
What does the record list as Cmax for COc1ccc2c(O[C@H]3C[C@H]4C(=O)N(C)CCCC/C=C/[C@@H]5C[C@@]5(C(=O)NS(=O)(=O)C5(C)CC5)NC(=O)N4C3)cc(-c3nc(C(F)(F)F)cs3)nc2c1C ?
2670

These measurements were taken from ChEMBL document CHEMBL3632591.
